studySystem: Nuclear receptor ROR-gamma (Mus musculus)
experimentalDetails: qHTS for inhibitors of ROR gamma transcriptional activity; further: nearly all actives have a fitted effect of over 60% in size
assayConditions: Drosophila S2 Gal4-RORgamma UAS-luciferase reporter, 20 h; series mostly up to 53.6 µM
Text: NIH Molecular Libraries Probe Production Network [MLPCN] NIH Chemical Genomics Center [NCGC] […] Small molecule inhibitors of ROR gamma activity are detected by a decrease in luciferase reporter activity. […]
Screen size: about 310,000 compounds; about 17,000 (5.5%) were called active. About 11% were inconclusive and are not listed. This excerpt belongs to a sample that is enriched for actives.
measure: outcome

Solved entries (count: 5):
Cc1ccccc1NC(=O)CCNS(=O)(=O)c1ccc2[nH]c(=O)oc2c1	inactive
CCOc1ccc(N/C(N)=N/c2nc(C)c(C)c(=O)[nH]2)cc1	inactive
C=CCNC(=O)COc1coc(CN2CCN(Cc3ccccc3)CC2)cc1=O	inactive
Cc1ccc(NC(=O)c2cc(-c3ccccc3O)n[nH]2)cc1C	inactive
c1ccc(-c2cc(-c3ccccc3)[nH]n2)cc1	inactive

Now examine the next entry.
Look up and report measured outcome for this entry: O=C(CNC(=O)Cc1ccccc1)N=Nc1c(O)[nH]c2ccc(Br)cc12
inactive
